test: NCI Yeast Anticancer Drug Screen. Data for the mlh1 rad18 strain (AID 175); conditions: S. cerevisiae mlh1 rad18 strain growth inhibition; at 5.0 µM (retest, dose inferred, filed as 0.5)
The panel holds about 79,000 compounds, 15% with a hit somewhere; the sample as a whole holds those more often. The source made the active and inactive calls. Cut-off read from the data, not from the text of the source: active = growth inhibition above about 70%; inactive = the rest. *1 amine or outer side, *2 acyl side, *3 side chain or, on linkers, in order; H or OH if unused. Where a SMILES comes first, the peptide text is derived from it. [ ]: non-standard residue; d: D form. X2 = CC[C@H](C)[C@H](OC(=O)[C@@H](C)[C@@H](CC)N[*:1])C(=O)[*:2]; X3 = C[C@H](N[*:1])C(=O)C(C)(C)C(=O)[*:2]; NMeY = CN[C@@H](Cc1ccc(O)cc1)C(=O)O; NMeL = CN[C@@H](CC(C)C)C(=O)O; NMeV = CN[C@H](C(=O)O)C(C)C
Classes used: active, inactive

compound: CC[C@H](C)[C@@H]1OC(=O)[C@@H](C)[C@@H](CC)NC(=O)[C@H](C)NC(=O)C(C)(C)C(=O)[C@H](C)NC(=O)[C@H](Cc2ccc(OC)cc2)N(C)C(=O)[C@H](C(C)C)N(C)C(=O)CNC(=O)[C@H](CC(C)C)N(C)C(=O)CNC1=O (cyclo(A[X2]G[NMeL]G[NMeV][NMeY](Me)[X3]))
label_class: active
--
compound: O=[N+]([O-])c1ccc(C=Cc2ccccc2)cc1.[C-]#[O+].[C-]#[O+].[C-]#[O+].[Cr]
label_class: inactive
--
compound: ClCCN(CCCl)c1ccc(C2N(Cc3ccc(Cl)cc3)CCCN2Cc2ccc(Cl)cc2)cc1
label_class: inactive
--
compound: CCNC(=O)O/N=C1/C=C2CC[C@@H]3C(CC[C@@]4(C)C3CC[C@@H]4OC(=O)NCC)[C@@]2(C)CC1 (some centres not stated)
label_class: active
--
compound: NCCBr
label_class: inactive
--
compound: C/C1=C\[C@@H](O)C(=O)/C=C/C=C\c2csc(n2)[C@@H](C)NC(=O)C[C@@]2(CC1)S(=O)SC(=O)[C@]2(C)O (some centres not stated)
label_class: active
--
compound: O=C(CCN1CC1)NCCc1ccccc1
label_class: inactive
--
compound: S=P(Nc1ccccc1)(Oc1ccccc1)c1ccccc1 (configuration not stated)
label_class: inactive
--
compound: CN(C)c1ccc(C2N(Cc3ccc(N(CCCl)CCCl)cc3Cl)CCCN2Cc2ccc(N(CCCl)CCCl)cc2Cl)cc1
label_class: inactive
--
compound: CNC(=O)ON(C(C)=O)C(=O)NC
label_class: inactive
--
compound: COc1cc(OC)c(OC)cc1/C=C/[N+](=O)[O-]
label_class: active
--
compound: CC1(C)CC(=O)C([Se]C2=C(O)CC(C)(C)CC2=O)=C(O)C1
label_class: active
--
compound: C/C(=N\NC(N)=O)C(CN1CCOCC1)C(c1ccccc1)c1c(O)c2ccccc2oc1=O (configuration not stated)
label_class: inactive
--
compound: CC(=O)NC1C(S[As](C)C)OC(COC(C)=O)C(OC(C)=O)C1OC(C)=O (configuration not stated)
label_class: inactive
--
compound: CC(C)[O-].CC(C)[O-].[O-]c1cccc2cccnc12.[O-]c1cccc2cccnc12.[Ti+4]
label_class: inactive
--
compound: CCOc1c(Br)cc(/C=C/[N+](=O)[O-])cc1OC
label_class: inactive
--
compound: CCC[CH2][Sn]1([CH2]CCC)[O]C(=O)c2cccc(C)c2[O]1
label_class: active
--
compound: [Cl][Sn]1([c]2ccccc2)[O]CCNCC[O]1
label_class: inactive
--
compound: CC1=C[n+]2cc(C)ccc2Sc2c1ccc1ccccc21
label_class: inactive
--
compound: Clc1c(CI)ccc(CI)c1Cl
label_class: active
--
compound: C=C(CC(=O)O)C(=O)O (tested in a mixture with another compound)
label_class: inactive
--
compound: CCC[CH2][Sn]([Cl])([CH2]Cl)[CH2]CCC
label_class: active
--
compound: Cc1oc2c([N+](=O)[O-])cccc2c1[N+](=O)[O-]
label_class: active
--
compound: Cn1cc(/C=C/[N+](=O)[O-])c2ccccc21
label_class: inactive
--
compound: O=C1NC(=O)C([N+](=O)[O-])C(=O)N1
label_class: inactive
--
compound: C[CH2][Sn]([CH2]C)([O]C(C)=O)[O][Sn]([CH2]C)([CH2]C)[O]C(C)=O
label_class: inactive
--
compound: CCOC(=O)C1CC12c1ccccc1-c1ccccc12 (configuration not stated)
label_class: inactive
--
compound: NC1=NCC(c2ccc(Cl)cc2)O1 (configuration not stated)
label_class: inactive
--
compound: CCC[CH2][Sn]([CH2]CCC)([O]C(=O)C(N)CSC)[O]C(=O)C(N)CSC (configuration not stated)
label_class: inactive
--
compound: [Cl][Hg][CH2]CC1CC=CCC1 (configuration not stated)
label_class: active
--
compound: S=C=Nc1cccc(Cl)c1
label_class: inactive
--
compound: CC/C(=C(/CC)c1ccc(OP(N)(=O)N(CCCl)CCCl)cc1)c1ccc(OP(N)(=O)N(CCCl)CCCl)cc1 (configuration not stated)
label_class: inactive
--
compound: C[CH2][Sn]([CH2]C)([CH2]C)[O]C(=O)CO
label_class: inactive
--
compound: Cc1ccc2ccccc2c1NC1=NCCO1
label_class: inactive
--
compound: O=c1oc2ccccc2c(O)c1C(c1ccc(OCc2ccccc2)cc1)c1c(O)c2ccccc2oc1=O
label_class: inactive
--
compound: CCCCN(CCCC)CCc1ccc(OC(=O)c2ccc(N)cc2)cc1
label_class: inactive
--
compound: O=c1c[n+](-c2ccc[nH+]c2)[nH]o1.[Cl][Hg][Cl]
label_class: active
--
compound: Brc1ccc(N2C[N+](c3ccc(Br)cc3)=NC(c3ccccc3)=N2)cc1
label_class: inactive
--
compound: CNC1=C(C)C(=O)C2=C(C1=O)C(COC(N)=O)C1(O)C3C(CN21)N3C (configuration not stated)
label_class: inactive
--
compound: S=P(S)(Oc1ccccc1)Oc1ccccc1
label_class: inactive
--
compound: CC(C)NCC(O)c1ccccc1Cl (configuration not stated)
label_class: inactive
--
compound: [CH3][Sn]([Br])([Br])[CH2]CCCBr
label_class: inactive

Hello, the source for this data is PubChem BioAssay (NCI), in case you need it.
